// data source = the supplement of paper PMC9112550

- Test system: Escherichia coli TOP10;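 note: peptides expressed intracellularly from a pBAD plasmid library in pooled LB shake-flask culture, induced with 0.3% L-arabinose, DNA abundance read by NGS, three biological replicates, DESeq2 with apeglm shrinkage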
- TEST SUMMARY: shrunken log2 fold change of peptide-encoding DNA abundance (4.5 h post-induction vs induction); higher = less antimicrobial activity (less host growth inhibition)
- COND: time post-induction: 4.5 h; library: site-saturation at positions 5, 18, 19, 20
Catalogue of shrunken log2 fold change values
Please give only the number in your answer, with no unit.

Please review the entries below; each comes with its answer.
INSERT INTO assay_data (residues, measure_name, reported) VALUES
  ('RRIRPRPPRLPRPRPRPHPNPRP', 'shrunken log2 fold change', 0.00254),
  ('RRIRGRPPRLPRPRPRPCFQPRP', 'shrunken log2 fold change', 0.106),
  ('RRIRERPPRLPRPRPRPKTHPRP', 'shrunken log2 fold change', -0.392),
  ('RRIRFRPPRLPRPRPRPTIVPRP', 'shrunken log2 fold change', 0.0438),
  ('RRIRCRPPRLPRPRPRPSSHPRP', 'shrunken log2 fold change', -0.0983),
  ('RRIRRRPPRLPRPRPRPQVRPRP', 'shrunken log2 fold change', -0.0161);

[in] For the sequence "RRIRQRPPRLPRPRPRPINRPRP" , what shrunken log2 fold change is on record?
[out] -0.341

[in] For the sequence "RRIRQRPPRLPRPRPRPQDAPRP" , what shrunken log2 fold change is on record?
[out] -0.253
